test: Stability in simulated gastric fluid assessed as parent compound remaining incubated for 4 hrs by HPLC analysis; format: ADME; settings: read-out: Stability
observable: remaining at 4 h

CC(=O)OCC1=CC[C@@H]2C(C(=O)Nc3ncco3)=CO[C@@H](O[C@@H]3O[C@H](COC(C)=O)[C@@H](OC(C)=O)[C@H](OC(C)=O)[C@H]3OC(C)=O)[C@H]12 47.6%

---

Consider the following pIC50 values measured on Xanthine dehydrogenase/oxidase (Bos taurus, UniProt P80457).
Sequence (P80457 whole entry): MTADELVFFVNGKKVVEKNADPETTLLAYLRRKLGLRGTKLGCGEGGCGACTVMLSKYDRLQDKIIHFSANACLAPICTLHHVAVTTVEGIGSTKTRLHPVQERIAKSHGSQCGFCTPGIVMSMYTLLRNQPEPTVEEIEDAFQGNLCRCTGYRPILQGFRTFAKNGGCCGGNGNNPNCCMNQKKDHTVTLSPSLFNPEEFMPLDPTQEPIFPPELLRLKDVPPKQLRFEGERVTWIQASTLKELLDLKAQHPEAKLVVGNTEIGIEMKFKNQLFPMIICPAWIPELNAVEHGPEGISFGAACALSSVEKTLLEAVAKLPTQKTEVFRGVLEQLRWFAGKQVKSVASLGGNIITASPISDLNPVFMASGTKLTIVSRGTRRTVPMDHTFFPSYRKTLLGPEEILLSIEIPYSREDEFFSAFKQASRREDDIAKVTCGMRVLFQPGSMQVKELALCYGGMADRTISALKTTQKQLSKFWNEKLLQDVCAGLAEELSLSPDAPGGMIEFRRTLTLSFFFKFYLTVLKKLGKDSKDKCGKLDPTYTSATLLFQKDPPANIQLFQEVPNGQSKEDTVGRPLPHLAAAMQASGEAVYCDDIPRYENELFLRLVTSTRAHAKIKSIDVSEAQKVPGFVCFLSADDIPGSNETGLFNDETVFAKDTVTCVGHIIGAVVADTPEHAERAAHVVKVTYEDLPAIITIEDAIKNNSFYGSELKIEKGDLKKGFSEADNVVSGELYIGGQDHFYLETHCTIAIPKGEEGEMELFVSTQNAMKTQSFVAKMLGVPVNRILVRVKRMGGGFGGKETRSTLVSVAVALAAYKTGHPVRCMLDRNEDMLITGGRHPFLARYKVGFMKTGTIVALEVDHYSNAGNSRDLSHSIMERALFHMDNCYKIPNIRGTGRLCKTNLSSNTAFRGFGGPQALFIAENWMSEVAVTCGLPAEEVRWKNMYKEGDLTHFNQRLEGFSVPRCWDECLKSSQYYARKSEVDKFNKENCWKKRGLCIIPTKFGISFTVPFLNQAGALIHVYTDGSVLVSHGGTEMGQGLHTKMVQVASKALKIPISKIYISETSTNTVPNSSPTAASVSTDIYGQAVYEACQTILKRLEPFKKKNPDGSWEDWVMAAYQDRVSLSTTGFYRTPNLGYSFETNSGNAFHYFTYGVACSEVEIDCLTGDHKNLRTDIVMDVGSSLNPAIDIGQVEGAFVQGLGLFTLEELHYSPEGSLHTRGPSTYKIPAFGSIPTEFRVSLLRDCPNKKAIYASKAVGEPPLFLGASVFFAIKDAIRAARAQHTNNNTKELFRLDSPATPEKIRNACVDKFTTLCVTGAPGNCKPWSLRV
pIC50: −log10 of the molar value.
observable: pIC50

compound	endpoint.value
CC(=O)OCC1=CC[C@@H]2C(C(=O)Nc3ccc(C(=O)NCC(=O)O)cc3)=CO[C@@H](O[C@@H]3O[C@H](COC(C)=O)[C@@H](OC(C)=O)[C@H](OC(C)=O)[C@H]3OC(C)=O)[C@H]12	4.13
CC(C)CC(=O)OCC1=CC[C@@H]2C(C(=O)O)=CO[C@@H](O[C@@H]3O[C@H](COC(=O)CC(C)C)[C@@H](OC(=O)CC(C)C)[C@H](OC(=O)CC(C)C)[C@H]3OC(=O)CC(C)C)[C@H]12	4.16
COC(=O)C1=CO[C@@H](O[C@@H]2O[C@H](CO)[C@@H](O)[C@H](O)[C@H]2O)[C@@H]2C(CO)=CC[C@H]12 [GENIPOSIDE]	3.79
CC(=O)OCC1=CC[C@@H]2C(C(=O)NCc3ccncc3)=CO[C@@H](O[C@@H]3O[C@H](COC(C)=O)[C@@H](OC(C)=O)[C@H](OC(C)=O)[C@H]3OC(C)=O)[C@H]12	4.44
